FYI, the data here is from patent US5605929A.

System: hamster flank organ
Assay: Flank organ, castrated immature male hamsters, topical treatment
Type: in vivo, Syrian golden hamster
Details: Table 5, T 0.5 μg + fatty acid 1 mg, 21 days; T alone 49.6 ± 8.3
Description: One to two weeks after castration, the hair on the lower back of each animal was clipped with an electric hair clipper and then shaved weekly to expose the flank organs. The animals were divided into 5 animals/treatment group. […] The flank organs, both the treated and untreated sides, were evaluated with methods to be described below to determine the effect of these treatments of the growth of the pigmented macules and the sebaceous glands. […]
The threshold is 40 mm^2. Values of Pigmented macule Right (+T) beneath it are tagged T; values meeting or exceeding it are tagged F.

For orientation, consider the following solved cases.
[
  {
    "Smi": "CCCCC/C=C/C/C=C/CCCCCCCC(=O)O",
    "Group": "F"
  },
  {
    "Smi": "CCCCCCCC/C=C\\CCCCCCCCCCCC(=O)O",
    "Group": "T"
  },
  {
    "Smi": "CCCCC/C=C\\C/C=C\\C/C=C\\CCCCC(=O)O",
    "Group": "T"
  }
]

*Q* Input CCCCCCCC/C=C\CCCCCCCC(=O)O ; condition: Pigmented macule Right (+T) strictly below 40 mm^2. Does it hold?
*A* T

*Q* Threshold test, Pigmented macule Right (+T) < 40 mm^2: CCCCCCCCCCCCCCCC(=O)O
*A* T

*Q* A record lists CCCCC/C=C\C/C=C\CCCCCCCC(=O)O . Is its Pigmented macule Right (+T) below 40 mm^2?
*A* T
